biological target: human CTLA-4 (human) (UniProt P16410); assay: flow cytometry, Expi293F cells transfected with CTLA-4
Sequence (P16410 36-223): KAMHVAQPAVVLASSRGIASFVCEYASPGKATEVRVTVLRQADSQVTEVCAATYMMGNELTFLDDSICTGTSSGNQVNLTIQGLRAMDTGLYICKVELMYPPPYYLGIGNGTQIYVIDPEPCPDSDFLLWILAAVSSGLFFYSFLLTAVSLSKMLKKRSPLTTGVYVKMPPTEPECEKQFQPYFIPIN

{"binder": "CD80 A91G/L102S ECD-Fc (Fc fusion) VIHVTKEVKEVATLSCGHNVSVEELAQTRIYWQKEKKMVLTMMSGDMNIWPEYKNRTIFDITNNLSIVILALRPSDEGTYECVVLKYEKDGFKREHLAEVTSSVKADFPTPSISDFEIPTSNIRRIICSTSGGFPEPHLSWLENGEELNAINTTVSQDPETELYAVSSKLDFNMTTNHSFMCLIKYGHLRVNQTFNWNTTKQEHFPDN", "MFI [MFI]": 6}
